experimental system: Beta-secretase 1 (Homo sapiens, UniProt P56817)
Sequence (P56817 whole entry): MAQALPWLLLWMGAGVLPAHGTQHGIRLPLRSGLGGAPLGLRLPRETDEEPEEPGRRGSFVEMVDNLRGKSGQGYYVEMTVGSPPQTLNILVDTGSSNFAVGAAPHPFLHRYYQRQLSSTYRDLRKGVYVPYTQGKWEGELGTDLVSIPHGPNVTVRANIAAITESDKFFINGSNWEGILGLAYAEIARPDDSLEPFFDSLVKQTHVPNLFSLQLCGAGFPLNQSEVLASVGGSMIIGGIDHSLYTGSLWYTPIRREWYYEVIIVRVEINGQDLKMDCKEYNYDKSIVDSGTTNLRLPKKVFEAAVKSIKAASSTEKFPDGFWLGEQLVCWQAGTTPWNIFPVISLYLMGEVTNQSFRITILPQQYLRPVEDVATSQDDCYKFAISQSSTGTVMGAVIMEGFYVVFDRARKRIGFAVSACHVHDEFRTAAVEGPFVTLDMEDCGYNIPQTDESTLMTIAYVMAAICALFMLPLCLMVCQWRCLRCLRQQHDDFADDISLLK
quantity name: IC50 (µM)
Report the figure in µM without appending any unit label.

Task: Print Beta-secretase 1 (Homo sapiens, UniProt P56817) IC50 for COc1ccc2nc3c(c(NCCCCCCCCNC(=S)NC45CC6CC(CC(C6)C4)C5)c2c1)CCCC3 .
Result: 18.4

----------
experimental system: Prostaglandin G/H synthase 2 (Homo sapiens)
Sequence (P35354 whole entry): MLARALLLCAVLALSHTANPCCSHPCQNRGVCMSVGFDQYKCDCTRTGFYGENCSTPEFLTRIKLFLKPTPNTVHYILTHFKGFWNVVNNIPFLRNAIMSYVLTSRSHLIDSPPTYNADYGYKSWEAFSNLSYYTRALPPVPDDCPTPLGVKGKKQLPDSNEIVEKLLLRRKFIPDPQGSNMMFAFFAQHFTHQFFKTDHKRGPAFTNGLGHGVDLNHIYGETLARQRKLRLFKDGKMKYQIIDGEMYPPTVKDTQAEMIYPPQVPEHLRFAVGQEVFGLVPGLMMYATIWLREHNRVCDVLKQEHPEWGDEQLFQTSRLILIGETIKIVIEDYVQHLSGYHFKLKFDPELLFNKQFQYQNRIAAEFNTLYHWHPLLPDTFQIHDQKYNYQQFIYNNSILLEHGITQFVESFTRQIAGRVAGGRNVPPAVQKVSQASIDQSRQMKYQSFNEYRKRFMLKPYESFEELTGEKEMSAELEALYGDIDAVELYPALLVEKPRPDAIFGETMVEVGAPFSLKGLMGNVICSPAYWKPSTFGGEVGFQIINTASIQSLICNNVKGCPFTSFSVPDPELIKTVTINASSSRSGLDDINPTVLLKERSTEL
assay name: Inhibition of COX2 in lympho-monocytes (unknown origin) preincubated for 30 mins followed by LPS challenged measured after 24 hrs by EIA
Record form. Attribute: IC50. Fill in for each entry.
Please answer using a numeric value trailed by its unit.

Task: Output measured IC50 for this item: Cc1ccc(Nc2c(F)cccc2Cl)c(CNc2nnn[nH]2)c1
Result: 14 nM

Task: Output measured IC50 for this item: Cc1ccc(Nc2c(F)cccc2Cl)c(CNS(=O)(=O)C(F)(F)F)c1
Result: 400 nM

----------
experimental system: Acetylcholinesterase (Rattus norvegicus)
Sequence (P37136 whole entry): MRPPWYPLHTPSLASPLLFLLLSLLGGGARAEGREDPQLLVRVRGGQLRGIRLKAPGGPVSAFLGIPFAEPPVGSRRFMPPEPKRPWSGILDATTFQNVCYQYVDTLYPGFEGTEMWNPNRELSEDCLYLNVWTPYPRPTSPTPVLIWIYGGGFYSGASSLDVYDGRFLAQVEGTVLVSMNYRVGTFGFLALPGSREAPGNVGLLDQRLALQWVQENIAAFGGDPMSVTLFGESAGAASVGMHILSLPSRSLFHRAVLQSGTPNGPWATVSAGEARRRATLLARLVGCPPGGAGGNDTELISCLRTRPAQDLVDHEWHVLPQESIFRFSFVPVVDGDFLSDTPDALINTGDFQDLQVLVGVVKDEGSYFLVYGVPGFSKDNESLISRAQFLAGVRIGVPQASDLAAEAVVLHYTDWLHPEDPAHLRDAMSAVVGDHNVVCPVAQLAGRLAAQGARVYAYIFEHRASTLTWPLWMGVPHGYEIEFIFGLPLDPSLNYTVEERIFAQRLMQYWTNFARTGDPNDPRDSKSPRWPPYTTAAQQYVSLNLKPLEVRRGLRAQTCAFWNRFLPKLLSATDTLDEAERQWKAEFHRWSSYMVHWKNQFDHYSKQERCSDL
quantity name: IC50

Task: Print Acetylcholinesterase (Rattus norvegicus) IC50 for N#Cc1ccc2[nH]cc(CCCCN3CCN(c4c5c(nc6ccccc46)CCCC5)CC3)c2c1 .
Result: 76 nM

----------
experimental system: Acetylcholinesterase (Homo sapiens, UniProt P22303)
Sequence (P22303 whole entry): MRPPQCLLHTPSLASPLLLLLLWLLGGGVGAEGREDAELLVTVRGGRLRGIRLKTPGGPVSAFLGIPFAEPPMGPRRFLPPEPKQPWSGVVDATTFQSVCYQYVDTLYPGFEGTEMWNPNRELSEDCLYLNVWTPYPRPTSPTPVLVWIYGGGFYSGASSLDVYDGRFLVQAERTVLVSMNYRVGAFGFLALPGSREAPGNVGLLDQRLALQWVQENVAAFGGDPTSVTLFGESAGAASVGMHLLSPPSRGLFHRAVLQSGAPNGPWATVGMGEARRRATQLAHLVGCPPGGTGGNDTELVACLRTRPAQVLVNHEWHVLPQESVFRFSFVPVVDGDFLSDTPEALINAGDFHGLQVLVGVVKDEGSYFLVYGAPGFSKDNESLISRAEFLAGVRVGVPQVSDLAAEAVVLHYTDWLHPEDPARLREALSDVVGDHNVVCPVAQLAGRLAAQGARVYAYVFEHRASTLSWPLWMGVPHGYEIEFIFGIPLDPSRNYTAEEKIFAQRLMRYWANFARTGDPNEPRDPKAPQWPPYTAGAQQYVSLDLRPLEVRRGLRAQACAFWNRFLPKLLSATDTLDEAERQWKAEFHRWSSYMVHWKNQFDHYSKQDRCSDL
assay name: Inhibition of human AChE
Record form. Attribute: pIC50. Fill in for each entry.
By convention, pIC50 is the negative base-10 log of a molar concentration.

Task: Output measured pIC50 for this item: COc1ccccc1CN1CCN(CCCCCOc2cccc3[nH]c4ccccc4c23)CC1
Result: 5.62

Task: Output measured pIC50 for this item: O=c1c2cc(OCCCN3CCCCC3)ccc2nc2n1CCC2
Result: 5.27

Task: Output measured pIC50 for this item: COc1ccc2nc3c(c(NCCCCCCCCNC(=S)NC45CC6CC(CC(C6)C4)C5)c2c1)CCCC3
Result: 5.80

Task: Output measured pIC50 for this item: COc1cc2c(cc1OC)-c1cc(OCCN3CCCCC3)nc(=O)n1CC2
Result: 5.30

----------
experimental system: UniProtKB P06276
Sequence (P06276 whole entry): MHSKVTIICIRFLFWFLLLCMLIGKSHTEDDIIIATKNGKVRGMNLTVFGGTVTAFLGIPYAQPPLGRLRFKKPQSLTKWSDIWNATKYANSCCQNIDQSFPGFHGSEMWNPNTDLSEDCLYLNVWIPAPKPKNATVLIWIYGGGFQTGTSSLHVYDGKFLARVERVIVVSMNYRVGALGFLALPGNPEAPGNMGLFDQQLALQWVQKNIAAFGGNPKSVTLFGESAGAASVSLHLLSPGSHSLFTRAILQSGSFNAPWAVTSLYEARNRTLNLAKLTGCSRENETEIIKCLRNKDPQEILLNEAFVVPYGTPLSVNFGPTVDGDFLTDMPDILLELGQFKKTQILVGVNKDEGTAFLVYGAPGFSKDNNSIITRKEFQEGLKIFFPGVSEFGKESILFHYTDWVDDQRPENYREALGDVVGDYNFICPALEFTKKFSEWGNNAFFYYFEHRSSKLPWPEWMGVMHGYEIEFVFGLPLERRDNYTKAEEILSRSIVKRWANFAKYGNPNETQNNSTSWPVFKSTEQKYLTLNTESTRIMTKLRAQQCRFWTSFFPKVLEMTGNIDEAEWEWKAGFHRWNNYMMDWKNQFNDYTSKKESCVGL
assay name: Inhibition of human BChE
Record form. Attribute: pIC50. Fill in for each entry.
By convention, pIC50 is the negative base-10 log of a molar concentration.

Task: Output measured pIC50 for this item: COc1ccc2nc3c(c(NCCCCCCCCNC(=S)NC45CC6CC(CC(C6)C4)C5)c2c1)CCCC3
Result: 6.52

Task: Output measured pIC50 for this item: COc1ccccc1CN1CCN(CCCCCOc2cccc3[nH]c4ccccc4c23)CC1
Result: 6.22

----------
experimental system: Prostaglandin G/H synthase 1 (Ovis aries)
Sequence (P05979 whole entry): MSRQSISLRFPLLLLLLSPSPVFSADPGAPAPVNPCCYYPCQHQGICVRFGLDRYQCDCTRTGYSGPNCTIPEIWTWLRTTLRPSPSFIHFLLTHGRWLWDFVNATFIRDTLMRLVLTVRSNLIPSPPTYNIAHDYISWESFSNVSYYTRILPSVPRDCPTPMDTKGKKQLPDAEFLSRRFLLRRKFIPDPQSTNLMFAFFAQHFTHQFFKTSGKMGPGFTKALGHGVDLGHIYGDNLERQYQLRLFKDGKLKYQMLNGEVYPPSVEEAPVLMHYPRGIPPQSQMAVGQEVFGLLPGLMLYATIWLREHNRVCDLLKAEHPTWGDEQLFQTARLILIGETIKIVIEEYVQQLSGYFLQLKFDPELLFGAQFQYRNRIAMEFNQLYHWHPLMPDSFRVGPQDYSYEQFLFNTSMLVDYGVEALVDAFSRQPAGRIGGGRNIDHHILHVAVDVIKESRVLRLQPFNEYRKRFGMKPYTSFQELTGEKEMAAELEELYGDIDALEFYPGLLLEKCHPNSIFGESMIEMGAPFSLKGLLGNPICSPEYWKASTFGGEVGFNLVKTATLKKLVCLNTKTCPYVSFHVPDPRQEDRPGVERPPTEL
quantity name: IC50 (µM)
Report the figure in µM without appending any unit label.

Task: Output measured IC50 for this item: CC[C@@H](/C=C/[C@@H](C)[C@H]1CC[C@H]2C3=CC[C@H]4C[C@@H](O)CC[C@]4(C)[C@H]3CC[C@]12C)C(C)C
Result: 16.2

----------
quantity name: IC50 (µM)
Report the figure in µM without appending any unit label.

Task: Print Cholinesterase (Equus caballus, UniProt P81908) IC50 for O=c1c2cc(OCCCN3CCCCC3)ccc2nc2n1CCC2 .
Result: 248

----------
assay name: Inhibition of nAChR (unknown origin) after 1 to 2 mins
Set-up: species or system Homo sapiens
quantity name: IC50

Task: Output measured IC50 for this item: COc1ccc2nc3c(c(NCCCCCCCCNC(=S)NC45CC6CC(CC(C6)C4)C5)c2c1)CCCC3
Result: 1100 nM

----------
experimental system: UniProt P50406
Sequence (P50406 whole entry): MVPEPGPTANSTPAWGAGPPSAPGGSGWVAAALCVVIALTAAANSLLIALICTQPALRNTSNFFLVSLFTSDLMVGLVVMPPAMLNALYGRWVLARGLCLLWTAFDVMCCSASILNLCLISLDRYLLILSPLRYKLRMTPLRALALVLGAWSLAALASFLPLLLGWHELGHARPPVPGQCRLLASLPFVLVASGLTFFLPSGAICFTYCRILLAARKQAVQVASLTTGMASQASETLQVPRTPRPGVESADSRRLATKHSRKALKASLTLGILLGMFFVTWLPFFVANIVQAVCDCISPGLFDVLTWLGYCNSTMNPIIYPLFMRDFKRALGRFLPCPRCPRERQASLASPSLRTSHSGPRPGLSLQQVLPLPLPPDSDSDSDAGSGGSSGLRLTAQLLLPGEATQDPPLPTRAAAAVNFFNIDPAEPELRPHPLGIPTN
assay name: Displacement of [3H]-LSD from recombinant human 5HT6 receptor expressed in CHOK1 cells measured after 60 mins by microbeta scintillation counting method
quantity name: Ki (nM)
Report the figure in nM without appending any unit label.

Task: Output measured Ki for this item: CN(CCCN1CCN(c2cccc3c2ccn3Cc2ccccc2)CC1)Cc1ccccc1
Result: 240

Task: Output measured Ki for this item: Cc1c(OCc2ccccc2)cccc1N1CCN(CCCCCCNc2c3c(nc4c2CCCC4)CCCC3)CC1
Result: 18

----------
experimental system: Amine oxidase [flavin-containing] A (Homo sapiens, UniProt P21397)
Sequence (P21397 whole entry): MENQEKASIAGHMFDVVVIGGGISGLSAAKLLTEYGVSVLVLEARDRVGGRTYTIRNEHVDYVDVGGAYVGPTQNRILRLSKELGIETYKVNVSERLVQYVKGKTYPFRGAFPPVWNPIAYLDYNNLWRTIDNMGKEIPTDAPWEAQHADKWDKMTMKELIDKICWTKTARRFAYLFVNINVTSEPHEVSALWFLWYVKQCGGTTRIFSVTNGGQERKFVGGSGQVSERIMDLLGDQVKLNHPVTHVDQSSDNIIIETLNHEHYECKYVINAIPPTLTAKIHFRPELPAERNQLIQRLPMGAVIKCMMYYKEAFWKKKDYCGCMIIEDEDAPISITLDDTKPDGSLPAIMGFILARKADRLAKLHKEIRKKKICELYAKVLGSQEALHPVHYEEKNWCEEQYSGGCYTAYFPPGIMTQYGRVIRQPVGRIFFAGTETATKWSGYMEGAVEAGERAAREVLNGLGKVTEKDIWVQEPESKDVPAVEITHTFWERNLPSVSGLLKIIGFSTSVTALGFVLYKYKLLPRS
quantity name: pIC50
By convention, pIC50 is the negative base-10 log of a molar concentration.

Task: Output measured pIC50 for this item: C#CCN(C)Cc1cc2cc(OCCCC3CCN(Cc4ccccc4)CC3)ccc2n1C
Result: 9.52

----------
experimental system: UniProtKB P06276
assay name: Inhibition of recombinant human BChE using butyrylthiocholine iodide as substrate preincubated for 5 mins followed by substrate addition measured after 5 mins
Record form. Attribute: IC50. Fill in for each entry.
Report the figure in nM without appending any unit label.

Task: Output measured IC50 for this item: Cc1c(OCc2ccccc2)cccc1N1CCN(CCCCCCNc2c3c(nc4c2CCCC4)CCCC3)CC1
Result: 22

Task: Output measured IC50 for this item: CN(CCCN1CCN(c2cccc3c2ccn3Cc2ccccc2)CC1)Cc1ccccc1
Result: 196

----------
experimental system: Histamine H3 receptor (Homo sapiens)
Sequence (Q9Y5N1 whole entry): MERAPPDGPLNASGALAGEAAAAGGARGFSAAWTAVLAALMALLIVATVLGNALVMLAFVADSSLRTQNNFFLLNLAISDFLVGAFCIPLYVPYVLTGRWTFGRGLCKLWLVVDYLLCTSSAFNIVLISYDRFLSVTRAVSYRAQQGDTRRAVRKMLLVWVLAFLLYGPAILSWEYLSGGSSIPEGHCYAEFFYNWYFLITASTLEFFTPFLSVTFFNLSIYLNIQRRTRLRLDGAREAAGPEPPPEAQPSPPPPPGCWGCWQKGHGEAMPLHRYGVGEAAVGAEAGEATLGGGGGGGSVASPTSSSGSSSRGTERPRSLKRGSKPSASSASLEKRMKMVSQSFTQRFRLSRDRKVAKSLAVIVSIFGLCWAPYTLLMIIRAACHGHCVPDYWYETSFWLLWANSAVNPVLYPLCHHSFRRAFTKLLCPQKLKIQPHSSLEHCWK
quantity name: Ki

Task: Print Histamine H3 receptor (Homo sapiens) Ki for O=c1c2cc(OCCCN3CCCCC3)ccc2nc2n1CCC2 .
Result: 2.5 µM

----------
experimental system: Acetylcholinesterase (Homo sapiens)
assay name: Inhibition of recombinant human AChE using acetylthiocholine iodide as substrate preincubated for 5 mins followed by substrate addition measured after 5 mins
quantity name: IC50 (nM)
Report the figure in nM without appending any unit label.

Task: Output measured IC50 for this item: Cc1c(OCc2ccccc2)cccc1N1CCN(CCCCCCNc2c3c(nc4c2CCCC4)CCCC3)CC1
Result: 14

Ref: ChEMBL document CHEMBL4334472
